tested.system: Carboanhydrase IX (Homo sapiens, UniProt Q16790 38-459)
protocol.details: cell-based or functional assay
parameter: MIAPaCa 2/CA9+ IC50 (pM)
Field: numeric (pM). Do not append units.

Worked examples, 4 binders total:
binder	units.label	result.number
Example 290 (antibody, human IgG1, kappa, V domains shown, linker-toxophore on lysine NH) VH: QVELVESGGGLVQPGGSLRLSCAASGFTFSSYGMSWVRQAPGKGLEWVSGISSLGSTTYYADSVKGRFTISRDNSKNTLYLQMNSLRAEDTAVYYCARTGSPGTFMHGDHWGQGTLVTVSS VL: DIQMTQSPSSLSASVGDRVTITCRASQDINNYLSWYQQKPGKAPKLLIYGASNLQSGVPSRFSGSGSGTDFTLTISSLQPEDFAVYYCQQYYGRPTTFGQGTKVEIKR	pM	1900
Example 280 (antibody, human IgG1, kappa, V domains shown, linker-toxophore on cysteine S) VH: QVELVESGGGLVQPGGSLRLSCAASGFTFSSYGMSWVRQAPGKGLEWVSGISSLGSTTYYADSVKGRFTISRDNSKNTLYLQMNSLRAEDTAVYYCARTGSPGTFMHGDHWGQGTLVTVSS VL: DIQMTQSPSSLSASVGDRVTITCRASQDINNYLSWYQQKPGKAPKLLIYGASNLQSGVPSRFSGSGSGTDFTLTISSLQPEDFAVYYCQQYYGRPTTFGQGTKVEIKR	pM	400
Example 284 (antibody, human IgG1, kappa, V domains shown, linker-toxophore on cysteine S) VH: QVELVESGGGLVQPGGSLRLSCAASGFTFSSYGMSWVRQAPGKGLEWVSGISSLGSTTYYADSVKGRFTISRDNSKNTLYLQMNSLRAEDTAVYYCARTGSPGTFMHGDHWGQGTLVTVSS VL: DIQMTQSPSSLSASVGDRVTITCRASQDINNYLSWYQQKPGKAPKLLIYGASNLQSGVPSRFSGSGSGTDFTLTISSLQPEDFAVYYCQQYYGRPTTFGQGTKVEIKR	pM	900
Example 303 (antibody, human IgG1, kappa, V domains shown, linker-toxophore on lysine NH) VH: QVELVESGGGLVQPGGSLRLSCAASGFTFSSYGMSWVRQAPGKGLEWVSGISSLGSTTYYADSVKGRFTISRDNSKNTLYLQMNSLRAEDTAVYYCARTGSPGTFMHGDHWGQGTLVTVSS VL: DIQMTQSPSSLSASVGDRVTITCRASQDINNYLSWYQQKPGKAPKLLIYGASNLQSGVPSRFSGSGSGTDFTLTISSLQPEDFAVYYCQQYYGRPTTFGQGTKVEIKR	pM	9

Could you now look at the following binder, please?
Looking up Example 281 (antibody, human IgG1, kappa, V domains shown, linker-toxophore on cysteine S) VH: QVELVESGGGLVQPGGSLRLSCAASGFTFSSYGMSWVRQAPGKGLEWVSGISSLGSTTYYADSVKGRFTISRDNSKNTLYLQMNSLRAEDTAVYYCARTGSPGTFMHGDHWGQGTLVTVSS VL: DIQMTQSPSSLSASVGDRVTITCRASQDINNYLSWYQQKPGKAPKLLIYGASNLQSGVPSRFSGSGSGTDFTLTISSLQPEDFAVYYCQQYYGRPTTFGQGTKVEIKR , I see its MIAPaCa 2/CA9+ IC50 listed as 1200
